Target: Lysosomal alpha-glucosidase (Homo sapiens)
Test: qHTS Assay for Activators of Human alpha-Glucosidase as a Potential Chaperone Treatment of Pompe Disease; also: potency is read from the fitted curve at half-maximal effect; nearly all actives have a fitted effect of over 80% in size
Conditions: purified enzyme, 4-MU-alpha-glucoside fluorescence, 20 min; series mostly up to 76.9 µM
Screen size: about 200,000 compounds; about 720 (0.36%) were called active. Roughly 8% stayed inconclusive and do not appear here. The list shows a part of the results.
Please respond with reported Potency for every item in the list.

Per the record, Nc1c(Cl)cc(Cl)cc1C(=O)OCC(=O)NC1CC1 has Potency of 35.5 µM (active)

Per the record, CCOC(=O)CC1C(=O)NCCN1C(=O)c1cc2c(=O)n3cccc(C)c3nc2s1 (centres undefined) has Potency of 31.6 µM (active)

Per the record, CCN1C=C(C(=O)OC)C(c2cccc(C)c2)C(C(=O)OC)=C1 has Potency of 35.5 µM (active)

Per the record, CC1(C)CN(c2ccc(-c3ccnc4ncnn34)cc2)C1=O has Potency of 28.2 µM (active)

Per the record, CCCCC[n+]1cccc2c3ccccc3ccc21 has Potency of 35.5 µM (active)

Per the record, c1ccc(C[n+]2cccc3c4ccccc4ccc32)cc1 has Potency of 39.8 µM (active)

Per the record, CC(C)N(C(=O)COC(=O)c1cc(Cl)cc(Cl)c1N)C(C)C has Potency of 35.5 µM (active)

Per the record, O=c1cccc2n1Cc1cc3ccccc3nc1-2 has Potency of 35.5 µM (active)

Per the record, Cc1cc(=O)oc2c(CN(CC(C)C)CC(C)C)c(O)ccc12 has Potency of 31.6 µM (active)

Per the record, C/C(=N\NC(=O)CC#N)c1cc2ccc(O)cc2oc1=O has Potency of 35.5 µM (active)

Per the record, Cc1cc2c(C)cc(=O)oc2c2c1NCCC2 has Potency of 35.5 µM (active)

Per the record, COCCN(CCOC)Cc1c(O)ccc2c3c(c(=O)oc12)CCC3 has Potency of 35.5 µM (active)

Per the record, Cc1cccn2c(=O)c3cc(C#N)c(=O)n(CC4CCCO4)c3nc12 (centres undefined) has Potency of 10 µM (active)

Per the record, c1ccc(CN2c3ccccc3-c3nc4ccccc4n3C2c2ccccn2)cc1 (centres undefined) has Potency of 28.2 µM (active)

Per the record, CCN1c2ccccc2-c2nc3ccccc3n2C1c1ccccn1 (centres undefined) has Potency of 31.6 µM (active)

Per the record, CCOC(=O)CC1C(=O)NCCN1C(=O)c1cc2c(=O)n3ccccc3nc2s1 (centres undefined) has Potency of 35.5 µM (active)

Per the record, Cc1ccc2nc3c(cc(C#N)c(=O)n3CC3CCCO3)c(=O)n2c1 (centres undefined) has Potency of 3.98 µM (active)

Per the record, CCC(=O)Nc1c(C#N)c2nc3ccccc3nc2n1-c1ccccc1C has Potency of 39.8 µM (active)

Per the record, COC(=O)CNC(=O)COC(=O)c1cc(Cl)cc(Cl)c1N has Potency of 39.8 µM (active)

Per the record, CCCCc1cc(=O)oc2c(CN3CCCC3)c(O)ccc12 has Potency of 31.6 µM (active)

Per the record, CC(C)CN(Cc1c(O)ccc2c3c(c(=O)oc12)CCC3)CC(C)C has Potency of 31.6 µM (active)

Per the record, COc1cccc(-c2ccc(C#N)c(OC(=O)c3ccc(Cl)cc3)n2)c1 has Potency of 35.5 µM (active)

Per the record, CCCc1cc(=O)oc2c(CN3CCOCC3)c(O)ccc12 has Potency of 31.6 µM (active)

Per the record, Nc1c(Cl)cc(Cl)cc1C(=O)OCC(=O)N1CCOCC1 has Potency of 31.6 µM (active)
